Biological target: SETD1A RRM domain (human, UniProt O15047 89-197)
Sequence (O15047 89-197): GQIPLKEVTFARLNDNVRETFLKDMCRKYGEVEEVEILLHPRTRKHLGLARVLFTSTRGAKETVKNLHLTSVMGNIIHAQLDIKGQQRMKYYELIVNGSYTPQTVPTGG
Experiment: MST; thermophoresis; EMSA: 2 nM biotinylated RNA, LightShift RNA EMSA kit protocol, 30 min room temperature, 6% native PAGE in 0.5x TBE; MST: 40% MST power, LED 20-40%, buffer and temperature not in material
Details: protein: recombinant; tags: His (pET28-MHL vector, HisTrap purified); label: uniformly labeled (MST)
measurement-kind: Kd (µM)
Numbers only; they are read as µM.

Please list Kd recorded for the binder AAGAAUGGCCUCGCGGAGGCAUGCGUCAUGCUAGCGUGCGGGGUACUCUU (ssRNA) [Random50 (R50)]
28.1
